So I've got a bunch of binders here, and I need their neutralization IC50 values.
Biological target: HIV-1 Env of CAP256.SU (HIV-1)
Experiment: cell-based or functional assay
Numbers only, in ng/mL.

Examples with their reported neutralization IC50 follow.
binder	neutralization IC50, ng/mL
CAP256-VRC26.04 (antibody, V domains shown) VH: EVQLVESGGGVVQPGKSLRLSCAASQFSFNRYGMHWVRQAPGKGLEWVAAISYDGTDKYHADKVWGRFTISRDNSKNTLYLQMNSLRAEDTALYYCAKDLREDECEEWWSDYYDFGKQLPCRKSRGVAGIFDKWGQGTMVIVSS VL: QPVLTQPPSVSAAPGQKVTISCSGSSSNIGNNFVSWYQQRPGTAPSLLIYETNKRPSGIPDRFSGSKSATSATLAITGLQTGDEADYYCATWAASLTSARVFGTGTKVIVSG	3
CAP256-VRC26.09 (antibody, V domains shown) VH: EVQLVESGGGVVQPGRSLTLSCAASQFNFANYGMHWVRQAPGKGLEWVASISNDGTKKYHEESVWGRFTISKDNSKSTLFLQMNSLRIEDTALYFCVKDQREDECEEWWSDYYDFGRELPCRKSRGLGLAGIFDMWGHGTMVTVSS VL: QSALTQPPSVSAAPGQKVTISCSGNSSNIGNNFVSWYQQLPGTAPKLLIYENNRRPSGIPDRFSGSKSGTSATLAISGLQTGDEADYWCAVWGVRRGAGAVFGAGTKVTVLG	2

Data request: Item CAP256-VRC26.01 (antibody, V domains shown) VH: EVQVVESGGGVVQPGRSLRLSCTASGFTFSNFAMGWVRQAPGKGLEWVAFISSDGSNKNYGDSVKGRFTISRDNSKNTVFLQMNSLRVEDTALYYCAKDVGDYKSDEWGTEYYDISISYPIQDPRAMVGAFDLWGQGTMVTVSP VL: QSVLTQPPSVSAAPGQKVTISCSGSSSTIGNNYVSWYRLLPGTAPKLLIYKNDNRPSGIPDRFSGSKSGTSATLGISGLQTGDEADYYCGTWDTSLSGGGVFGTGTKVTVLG : provide neutralization IC50
Data returned: 140
